B1: HEEH_KT_rd6_3632 (parent)
chain: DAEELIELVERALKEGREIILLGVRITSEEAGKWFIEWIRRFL

Variants of: B1
Method: folding stability dG (cDNA display proteolysis); higher = more stable
Details: PBS, room temperature
Below, each of the variants is paired with its reported folding stability dG value.

Mutation: E3D
folding stability dG, kcal/mol: 3.85
--
Mutation: G23K
folding stability dG, kcal/mol: 3.55
--
Mutation: L5C
folding stability dG, kcal/mol: 3.74
--
Mutation: L13Y
folding stability dG, kcal/mol: 3.28
--
Mutation: V24S
folding stability dG, kcal/mol: 2.86
--
Mutation: R41M
folding stability dG, kcal/mol: 3.93
--
Mutation: R25M
folding stability dG, kcal/mol: 3.66
--
Mutation: K33M
folding stability dG, kcal/mol: 3.57
--
Mutation: F35W
folding stability dG, kcal/mol: 3.44
--
Mutation: R17G
folding stability dG, kcal/mol: 3.3
--
Mutation: K33L
folding stability dG, kcal/mol: 3.63
--
Mutation: F42T
folding stability dG, kcal/mol: 3.35
